- assayed target: human BCL6 BTB domain (Trx-6×His-BCL6) / BCOR-AF633 peptide (Homo sapiens (Human), UniProt P41182)
- protocol notes: HTRF assay
- Assay type: binding
- condition parameters: 1 nM Trx-6×His-BCL6, 300 nM BCOR-AF633 peptide, 2 hours incubation
assay endpoint: HTRF avg pIC50 (1 nM)

• COCC1(C)CCOc2c(c3cc(Nc4nc(-n5ccc(C(F)(F)F)n5)ncc4Cl)ccc3n(C)c2=O)N1 (stereo not shown) = 6.09
• C[C@H]1CN(c2ncc(Cl)c(Nc3ccc4c(c3)c3c(c(=O)n4C)OCC(F)(F)[C@H](C4CC4)N3)n2)CCO1 [Example 12t] = 8.46
• C[C@@H]1CN(c2ncc(Cl)c(Nc3ccc4c(c3)c3c(c(=O)n4C)OCC[C@H](C4CC4)N3)n2)C[C@H](C)[C@H]1F [Example 12e] = 6.93
• C[C@H]1CCOc2c(c3cc(Nc4cc(C(=O)O)nc(Cl)c4C#N)ccc3n(C)c2=O)N1 = 7.26
• CC1Nc2c(c(=O)n(C)c3ccc(Nc4ccnc(Cl)c4C#N)cc23)OCC12CC2 (stereo not shown) = 5.97
• O=c1c2c(c3cc(Nc4nc(N5C6COCC5CC(O)C6)ncc4Cl)ccc3n1CC1CC(F)(F)C1)N[C@@H](C1CC1)CCO2 (stereo partly shown) = 8.08
• C[C@@H]1CN(c2ncc(Cl)c(Nc3ccc4c(c3)c3c(c(=O)n4C)OCC(F)(F)[C@H](C4CC4)N3)n2)CCO1 [Example 12s] = 8.47

* * *

- assayed target: BCL6-NCOR2(SMRT) corepressor protein-protein interaction (Homo sapiens (Human), UniProt P41182)
- protocol notes: NanoBRET cell assay
- Type: cell-based
- condition parameters: read-out: NanoBRET cell avg pIC50 (converted)
assay endpoint: IC50 (µM)

• COCC1(C)CCOc2c(c3cc(Nc4ccnc(Cl)c4C#N)ccc3n(C)c2=O)N1 (stereo not shown) = 2.51
• C[C@H]1COC(=O)c2c(c3cc(Nc4nc(N5C6CCCC5CC6)ncc4Cl)ccc3n(C)c2=O)N1 = 2.19
• C[C@@H]1C[C@H](C)CN(c2ncc(Cl)c(Nc3ccc4c(c3)c3c(c(=O)n4C)OCC[C@H](C)N3)n2)C1 = 5.25

A: C[C@H]1CCOc2c(c3cc(Nc4cc(C(=O)N5CCC5)nc(Cl)c4C#N)ccc3n(C)c2=O)N1
B: Cn1c(=O)c2c(c3cc(Nc4nc(N5CCC(F)(F)CC5)ncc4Cl)ccc31)NC(C1CC1)COC2=O (stereo not shown)
C: Cn1c(=O)c2c(c3cc(Nc4ccnc(Cl)c4C#N)ccc31)N[C@@H](C1CC1)CCS2(=O)=O
D: Cn1c(=O)c2c(c3cc(Nc4ccnc(Cl)c4C#N)ccc31)N[C@@H](C1CC1)CCS2
Incoming: Order the entries by their reported IC50, beginning at the minimum. Please respond by ranking the labels in the order requested.
Outgoing: D, C, A, B
(D: 0.0631 µM, C: 3.09 µM, A: 4.79 µM, B: 9.33 µM)

* * *

- assayed target: human BCL6 BTB domain (Trx-6×His-BCL6) / BCOR-AF633 peptide (Homo sapiens (Human), UniProt P41182)
- protocol notes: HTRF assay
- Assay type: binding
- condition parameters: 1 nM Trx-6×His-BCL6, 300 nM BCOR-AF633 peptide, 2 hours incubation
assay endpoint: HTRF avg pIC50 (1 nM)

* C[C@@H]1CN(c2ncc(Cl)c(Nc3ccc4c(c3)c3c(c(=O)n4C)C(=O)OC[C@H](C4CC4)N3)n2)C[C@H](C)O1 | 6.19
* Cn1c(=O)c2c(c3cc(Nc4ccnc(Cl)c4C#N)ccc31)N[C@@H](C1CC1)CCS2 | 7.83
* Cn1c(=O)c2c(c3cc(Nc4ccnc(Cl)c4C#N)ccc31)NC(C1CC1)C(F)(F)CO2 (stereo not shown) | 8.35
* C[C@@H]1CN(c2ncc(Cl)c(Nc3ccc4c(c3)c3c(c(=O)n4C)OCC[C@H](C)N3)n2)C[C@H](C)C1(F)F | 6.07
* Cn1c(=O)c2c(c3cc(Nc4ccnc(Cl)c4C#N)ccc31)NC(C)(C)CCO2 | 6.24
* C[C@H]1CCOc2c(c3cc(Nc4cc(C(=O)N5CCC5)nc(Cl)c4C#N)ccc3n(C)c2=O)N1 | 6.88
* Cn1c(=O)c2c(c3cc(Nc4nc(N5C6CCCC5CC6)ncc4Cl)ccc31)N[C@@H](C1CC1)COC2=O | 6.65
